- method.summary: qHTS RealTime-Glo MT Cell Viability Assay in HEK293 cells - 40 hour (AID 1224874); note: % is set by controls: 0 for no effect and ±100 for the full control effect; nearly all actives have a fitted effect of over 50% in size
- condition.details: RealTime-Glo luminescence; hits give low values
Inconclusive results are not listed.
reported.endpoint: max response (%)
Your answer is read as %, so omit the unit and give the number.

- compound: "COCCC(=O)OC"
  unit.symbol: "%"
  max response: 1.08
- compound: "Nc1c(Br)cc([N+](=O)[O-])cc1Br"
  unit.symbol: "%"
  max response: -23.8

Give max response for the following compound: Brc1cc(Br)cc(Br)c1 0.239

Complete the entry with the larger response for CC1CCC(C(C)(C)O)CC1 (stereo not drawn) 0.893

Entry CCn1c2ccccc2c2ccccc21 needs its max response filled in; supply it. -15.2

Output max response of CC1(C)[C@H]2CC[C@]1(C)C(=O)C2 16

For the compound CCCCCCCCc1ccc(Nc2ccc(CCCCCCCC)cc2)cc1 , give its reported max response. -0.6

Identify measured max response associated with CO[Si](OC)(c1ccccc1)c1ccccc1 -18.7

###

- method.summary: qHTS assay for identifying genotoxic compounds that show differential cytotoxicity against isogenic chicken DT40 cell lines with known DNA damage response pathways - Rev3 mutant cell line (AID 743014); note: nearly all actives have a fitted effect of over 55% in size; note: potency is the fitted concentration of half-maximal effect
- condition.details: chicken DT40 Rev3-/- viability, CellTiter-Glo, 40 h; series mostly up to 68.4 µM
Results filed as inconclusive are left out. Active and inactive are the calls of the source. Calls follow the shape of the dose curve; as a rule, active = well fitted cell-killing curve with a large enough effect in the repeat runs; inconclusive = weak or mixed curves, or effect the other way; inactive = no such curve, though single readings can be large or run the other way.
reported.endpoint: Potency

Use the examples below as a reference point.
- smiles.text: "N[C@H](C(=O)O)[C@@H]1CC(Cl)=NO1"
  Potency: "2.66 µM (active)"
- smiles.text: "CCCCCN=C(N)N/N=C/c1c[nH]c2ccc(OC)cc12"
  Potency: "inactive"
- smiles.text: "O=C1CCC(c2ccc(-n3ccnc3)cc2)=NN1"
  Potency: "inactive"
- smiles.text: "FC(F)(F)C(F)(F)C(F)(F)C(F)(F)C(F)(F)F"
  Potency: "inactive"

Please report Potency for the following compound: CC[C@@H](C(=O)[C@@H](C)[C@@H](O)[C@H](C)CCc1ccc(C)c(O)c1C(=O)O)[C@H]1O[C@](CC)([C@H]2CC[C@](O)(CC)[C@H](C)O2)C[C@@H]1C 4.73 µM (active)

###

- method.summary: qHTS assay to identify small molecule HDAC inhibitors (AID 1259364);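 note: wild-type HCT-116 cells with endogenous class I/II HDAC activity; nearly all actives have a fitted effect of over 45% in size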
- condition.details: HCT-116 HDAC-Glo I/II luminescence, 2 h; series mostly up to 92.4 µM
Records with an inconclusive call do not appear. Calls of active or inactive are those of the source. The call rests on the fitted dose curve; in most records, active means well fitted inhibition curve with a large enough effect in the repeat runs; inconclusive means weak or mixed curves; inactive means flat fitted curve, though single readings scatter.
Parameter call: string, one of Y (active), N (inactive)

- compound: "CC(Cc1ccc(O)c(O)c1)C(C)Cc1ccc(O)c(O)c1 (configuration not stated)"
  group: "N"
- compound: "C=C(C)C1CCC(C)CC1O (configuration not stated)"
  group: "N"
- compound: "CC1=CC[C@@H](C(C)(C)O)CC1"
  group: "N"
- compound: "Cc1ccc2nc(-c3ccc(N)cc3)sc2c1S(=O)(=O)O"
  group: "Y"
- compound: "CO[Si](OC)(c1ccccc1)c1ccccc1"
  group: "N"

I would be grateful if you could indicate the recorded call for CC/C=C\C/C=C\C/C=C\CCCCCCCC(=O)OC . N

Just curious, what result did C=CCc1cc(S(=O)(=O)c2ccc(O)c(CC=C)c2)ccc1O get here? N

GET /call?item= COc1cc([C@@H]2c3cc4c(cc3[C@@H](O[C@@H]3O[C@@H]5CO[C@@H](C)O[C@H]5[C@H](O)[C@H]3O)[C@H]3COC(=O)[C@H]23)OCO4)cc(OC)c1O returns the recorded outcome of this test. N

###

- method.summary: qHTS assay to identify small molecule agonists of the estrogen related receptor (ERR) signaling pathway (AID 1224820); note: % is set by controls: 0 for no effect and ±100 for the full control effect
- condition.details: ERR reporter cell line, luciferase agonist mode; series mostly up to 46.1 µM
Records with an inconclusive call do not appear. Calls of active or inactive are those of the source. Calls come from the whole dose curve; as a rule, active = well fitted activation curve with a large enough effect in the repeat runs; inconclusive = weak or mixed curves; inactive = no such curve, though single readings can be large or run the other way.
Outcome (select one): active, inactive

- compound: "CC(C)NC[C@@H](O)c1ccc(O)c(O)c1"
  group: "inactive"

How did this test come out for O=[N+]([O-])c1ccc(CSc2ncnc3c2ncn3[C@@H]2O[C@H](CO)C(O)[C@H]2O)cc1 (stereo partly drawn) ? inactive

What classification did CCn1c(=O)[nH]c2cc(Cl)c(Cl)cc21 end up with in this test? inactive

# lookup: test call for NS(=O)(=O)c1ccc(-n2nc(C(F)(F)F)cc2-c2ccc(Cl)cc2)cc1 inactive

Outcome logged for COc1ccccc1N1CCN(CCCNc2c(C)c(=O)n(C)c(=O)n2C)CC1 in this assay: inactive

Answer briefly: the call reported for NCCCS(=O)(=O)O in this assay. inactive

Could you kindly confirm the outcome this assay logged for COc1cc(CC(=O)O)ccc1O ? inactive

###

- method.summary: qHTS assay to identify small molecule agonists of the AP-1 signaling pathway (AID 1159526); note: % is set by controls: 0 for no effect and ±100 for the full control effect
- condition.details: ME-180 (cervical carcinoma) AP-1-bla reporter, beta-lactamase FRET ratio, 5 h; series mostly up to 76.8 µM
Records with an inconclusive call do not appear. The source made the active and inactive calls. The call rests on the fitted dose curve.
reported.endpoint: activation

Some solved cases for reference:
- smiles.text: "Oc1ccc2c(c1)CCC2"
  observed.value: "inactive"
- smiles.text: "O=C1CCCCCCCCCCCCCC1"
  observed.value: "inactive"
- smiles.text: "CCOc1nc(F)cc2nc(S(=O)(=O)Nc3c(Cl)cccc3C(=O)OC)nn12"
  observed.value: "inactive"
- smiles.text: "Brc1cc(Br)cc(Br)c1"
  observed.value: "inactive"

For the molecule Nc1ccc(Oc2cccc(Oc3ccc(N)cc3)c2)cc1 , give its measured activation value. inactive

Provide one value: measured activation of O[Si](c1ccccc1)(c1ccccc1)c1ccccc1 inactive

Output measured activation for this item: CCN(CCC#N)c1ccc(N=Nc2ccc([N+](=O)[O-])cc2)cc1 inactive

// Input: O=C(N[C@H](CO)[C@H](O)c1ccc([N+](=O)[O-])cc1)C(Cl)Cl . Output its activation only. inactive

Complete the entry with activation for CC1=C(/C=C/C(C)=C/C=C/C(C)=C\C(=O)O)C(C)(C)CCC1 inactive

State, in one line, measured activation of SC1CCCCC1 inactive

Report measured activation; entry is O=C(O)CN(CCCN(CC(=O)O)CC(=O)O)CC(=O)O 3.51% [at 15.8 µM] (inactive)

###

- method.summary: qHTS assay to identify small molecule antagonists of the glucocorticoid receptor (GR) signaling pathway - cell viability counter screen (AID 720693); note: nearly all actives have a fitted effect of over 55% in size
- condition.details: GR-bla HeLa viability, CellTiter-Glo luminescence, 18 h, with 5 nM dexamethasone present; series mostly up to 58.5 µM
Inconclusive results are not listed. Active and inactive are the calls of the source. Calls come from the whole dose curve; as a rule, active = well fitted cell-killing curve with a large enough effect in the repeat runs; inconclusive = weak or mixed curves, or effect the other way; inactive = no such curve, though single readings can be large or run the other way.
In this exercise, the only acceptable responses are 1 = active, 0 = inactive

Example entries and their recorded answers appear below.
- compound: "Cc1cc(=O)c(C(=O)N[C@@H](C(=O)N[C@@H]2C(=O)N3C(C(=O)O)=C(CSc4nnnn4C)CS[C@H]23)c2ccc(O)cc2)c[nH]1"
  group: 0
- compound: "CN1[C@@H](CC(=O)c2ccccc2)CCC[C@H]1C[C@H](O)c1ccccc1"
  group: 0

Given CC(C)[N+]1(C)[C@@H]2CC[C@H]1CC(OC(=O)C(CO)c1ccccc1)C2 (stereo partly drawn) , state the outcome it received in this test. 0

Per the records of this test, what outcome belongs to CC1CCCC(C)N1NC(=O)c1ccc(Cl)c(S(N)(=O)=O)c1 (stereo not drawn) ? 0

Hi team, can someone confirm the assay call for O=C(O)/C=C/C(O)c1ccc(Cl)cc1 (stereo not drawn) ? 0

Which outcome did this test record for the compound CC[C@@H](C(=O)[C@@H](C)[C@@H](O)[C@H](C)CCc1ccc(C)c(O)c1C(=O)O)[C@H]1O[C@](CC)([C@H]2CC[C@](O)(CC)[C@H](C)O2)C[C@@H]1C ? 1

Can you look up the reported call for NC(=O)C1c2ccccc2CCc2ccccc21 for me? 0

Outcome? CNCC(=O)N[C@@H](CCCN=C(N)N)C(=O)N[C@H](C(=O)N[C@@H](Cc1ccc(O)cc1)C(=O)N[C@H](C(=O)N[C@@H](Cc1cnc[nH]1)C(=O)N1CCC[C@H]1C(=O)N[C@@H](C)C(=O)O)C(C)C)C(C)C 0

###

- method.summary: qHTS assay for small molecules that induce genotoxicity in human embryonic kidney cells expressing luciferase-tagged ATAD5 (AID 651632); note: % is set by controls: 0 for no effect and ±100 for the full control effect; nearly all actives have a fitted effect of over 15% in size
- condition.details: HEK293T ATAD5-luciferase induction, 16 h; series mostly up to 83.3 µM
Records with an inconclusive call do not appear. Active and inactive are the calls of the source. Calls follow the shape of the dose curve; as a rule, active = well fitted activation curve with a large enough effect in the repeat runs; inconclusive = weak or mixed curves; inactive = no such curve, though single readings can be large or run the other way.
reported.endpoint: outcome

Completed entries (count: 5):
- compound: "COc1cc([C@@H]2c3cc4c(cc3[C@@H](O[C@@H]3O[C@@H]5CO[C@@H](C)O[C@H]5[C@H](O)[C@H]3O)[C@H]3COC(=O)[C@H]23)OCO4)cc(OC)c1O"
  outcome: "inactive"
- compound: "Cc1cnc(C(=O)O)c[n+]1[O-]"
  outcome: "inactive"
- compound: "Oc1ccc(Cl)cc1C1CCCC1"
  outcome: "inactive"
- compound: "CCOc1ccc(NC(=S)Nc2ccc(OCC)cc2)cc1"
  outcome: "inactive"
- compound: "O=C1CCCCCCCCCCCCCC1"
  outcome: "inactive"

For the compound O=C1OC(=O)c2cc(-c3ccc4c(c3)C(=O)OC4=O)ccc21 , give its reported outcome. inactive

Output measured outcome for this item: CN(C)CCc1c[nH]c2ccc(Cn3cncn3)cc12 inactive

For the compound CCc1cn([C@H]2C[C@H](O)[C@@H](CO)O2)c(=O)[nH]c1=O , give its reported outcome. inactive

Return value of outcome for input Cc1ccc(Cl)c(N)c1Cl , no commentary. inactive

Name the recorded outcome of the compound listed here: Cc1cc(Br)ccc1NC(=O)CCl inactive
